Test: gradient 5% acetonitrile 3 min, to 50% in 2 min, to 85% in 15 min, held 3 min, 100 µL/min
Conditions: column: Zorbax Extend-C18 2.1 x 50 mm; eluents: water / acetonitrile, 0.1% formic acid

>  <compound>
Cn1nc(CN(C(=O)c2ccc(F)cc2)c2ccccc2)c2c1CCN(S(C)(=O)=O)C2

>  <RP-LC retention time / s>
721

$$$$
>  <compound>
Cc1ccc(-c2cc3n(n2)CCCN(C(=O)CCCC(=O)n2nc(C)c4ccccc42)C3)o1

>  <RP-LC retention time / s>
859

$$$$
>  <compound>
CCc1c(C2CCN(C(=O)Nc3ccc(OC)cc3)CC2)noc1N

>  <RP-LC retention time / s>
693

$$$$
>  <compound>
O=S(=O)(c1ccccc1)N1CC(c2nc(-c3ccncc3)no2)C1

>  <RP-LC retention time / s>
688

$$$$
>  <compound>
CC1CCN(S(=O)(=O)c2ccc(-c3nnc(C(=O)NCC4CCCO4)o3)cc2)CC1 (stereo not drawn)

>  <RP-LC retention time / s>
865

$$$$
>  <compound>
N#Cc1ccc(NC(=O)Cn2cccc(-c3nc(-c4ccc(F)cc4)no3)c2=O)cc1

>  <RP-LC retention time / s>
857

$$$$
>  <compound>
COc1cc(OC)c(NC(=O)N2CCC(n3c(C)nc4cccnc43)CC2)cc1Cl

>  <RP-LC retention time / s>
711

$$$$
>  <compound>
CC(C)C(=O)NCc1csc(C2CCCN(C(=O)C3CCC3)C2)n1 (stereo not drawn)

>  <RP-LC retention time / s>
694

$$$$
>  <compound>
Cc1ccc(-c2coc(-c3ccc(NC(=O)NCc4ccco4)cc3)n2)c(C)c1

>  <RP-LC retention time / s>
1110

$$$$
>  <compound>
CCCN1C(=O)COc2ccc(-c3noc(-c4ccc(OC)c(OC)c4)n3)cc21

>  <RP-LC retention time / s>
1110

$$$$
>  <compound>
Cc1ccccc1CNC(=O)C1(C)CCCN(C(=O)Nc2ccccc2)C1 (stereo not drawn)

>  <RP-LC retention time / s>
898

$$$$
>  <compound>
COCCNc1c(-c2cccc(F)c2)nc2sc(C(=O)NC3CCCC3)c(C)n12

>  <RP-LC retention time / s>
917

$$$$
>  <compound>
O=C(Nc1ccc(F)c(Cl)c1)c1cccn1Cc1noc(C2CC2)n1

>  <RP-LC retention time / s>
998

$$$$

###

Below, each of the molecules is paired with its reported RP-LC retention time value.
Assay: gradient 5% acetonitrile 3 min, to 50% in 2 min, to 85% in 15 min, held 3 min, 100 µL/min
Conditions: column: Zorbax Extend-C18 2.1 x 50 mm; eluents: water / acetonitrile, 0.1% formic acid

>  <molecule>
O=S(=O)(c1ccccc1)N1CCOc2ccccc21

>  <RP-LC retention time>
974 s

$$$$
>  <molecule>
Cc1nn(-c2ccccc2)c2c1-c1sc(C(=O)N3CCN(c4ccccn4)CC3)cc1CC2

>  <RP-LC retention time>
671 s

$$$$
>  <molecule>
CCc1noc(-c2nc(-c3ccc(OC)c(OC)c3)no2)n1

>  <RP-LC retention time>
976 s

$$$$
>  <molecule>
CCOc1ccc(-n2nnnc2CNC(=O)Nc2cccs2)cc1

>  <RP-LC retention time>
722 s

$$$$
>  <molecule>
O=C(c1csc(N2CCN(c3ccccc3)CC2)n1)N1CCN(c2ccccn2)CC1

>  <RP-LC retention time>
685 s

$$$$
>  <molecule>
Cc1ccccc1-c1noc(-c2cccn(CC(=O)NCC3CCCO3)c2=O)n1 (stereo not drawn)

>  <RP-LC retention time>
729 s

$$$$
>  <molecule>
Cc1cc(C)cc(C(=O)N2CCN(c3nc(C)cc(N4CCOCC4)n3)CC2)c1

>  <RP-LC retention time>
653 s

$$$$
>  <molecule>
COc1ccc(NC(=O)NCCC2CCN(S(=O)(=O)c3ccccc3)CC2)cc1

>  <RP-LC retention time>
822 s

$$$$

###

Assay: gradient 5% acetonitrile 3 min, to 50% in 2 min, to 85% in 15 min, held 3 min, 100 µL/min
Settings: column: Zorbax Extend-C18 2.1 x 50 mm; eluents: water / acetonitrile, 0.1% formic acid
Criterion: RP-LC retention time strictly under 800 s. Met: y. Not met: n.

>  <molecule>
O=C(Nc1cccc(N2CCCCC2=O)c1)c1ccc(F)c(F)c1

>  <answer-label>
y

$$$$
>  <molecule>
Cc1ccc(NC(=O)N2CCC(n3cnc4cccnc43)CC2)cc1F

>  <answer-label>
y

$$$$
>  <molecule>
O=C(NCc1csc(C2CCN(C(=O)c3ccc(F)c(F)c3)CC2)n1)C1CC1

>  <answer-label>
y

$$$$
>  <molecule>
CCN(CC)CCn1c(C)c(C)c2c1ncn1nc(-c3cccnc3)nc21

>  <answer-label>
y

$$$$
>  <molecule>
COC(=O)Nc1ccc(-c2nc(N3CCOCC3)c3cnn(C4CCN(C(=O)OC)CC4)c3n2)cc1

>  <answer-label>
n

$$$$
>  <molecule>
O=C(NCc1ccc(F)cc1)C1CCN(S(=O)(=O)c2ccc(-c3noc(C4CC4)n3)cc2)CC1

>  <answer-label>
n

$$$$
>  <molecule>
Cc1ccc(C(=O)Nc2cnc(-c3ccc(Cl)cc3)nc2)s1

>  <answer-label>
n

$$$$
>  <molecule>
CCOc1ccc(CNCCSc2nnnn2C)cc1Cl

>  <answer-label>
y

$$$$
>  <molecule>
CCOc1ccc(NS(=O)(=O)c2cc(C(=O)N3CCN(c4ccccc4F)CC3)n[nH]2)cc1

>  <answer-label>
n

$$$$
>  <molecule>
O=C1CCCc2cc(S(=O)(=O)N3CCCN(Cc4ccccc4Cl)C3)ccc2N1

>  <answer-label>
y

$$$$
>  <molecule>
CCCn1nnc(NCc2ccc(-c3cc(Cl)ccc3Cl)o2)n1

>  <answer-label>
n

$$$$
>  <molecule>
Cc1cc2c(c(=O)n(-c3ccccc3)c(=O)n2CC(=O)Nc2ccc3c(c2)OCO3)n1C

>  <answer-label>
y

$$$$
>  <molecule>
Cc1ccc(-n2ccnc2SCc2nc(-c3cccc(F)c3)no2)cc1

>  <answer-label>
n

$$$$
>  <molecule>
CCc1ccc(NC(=O)N2CCc3nc(-c4ccc(F)cc4)ncc3C2)cc1

>  <answer-label>
n

$$$$
>  <molecule>
CCOc1cccc(CN2C[C@@H]3C(=O)N(Cc4ccc5c(c4)OCO5)C(=O)[C@@H]3C2)c1

>  <answer-label>
y

$$$$
>  <molecule>
CC1CCCN(CCCNC(=O)c2nc3nc(-c4ccco4)cc(C(F)(F)F)n3n2)C1 (configuration not stated)

>  <answer-label>
y

$$$$
>  <molecule>
CCCn1cc(C(=O)Nc2ccc(N3CCOCC3)cc2)c2cccnc21

>  <answer-label>
n

$$$$
>  <molecule>
CCN1CCn2cc(S(=O)(=O)Nc3cccc(C(=O)OC)c3)cc2C1=O

>  <answer-label>
y

$$$$
>  <molecule>
Cc1nc2cc(N3CCCC(C(=O)N4CCCCCC4)C3)cnc2nc1C (configuration not stated)

>  <answer-label>
y

$$$$
>  <molecule>
Cc1[nH]c(=O)[nH]c(=O)c1S(=O)(=O)N1CCCC1

>  <answer-label>
y

$$$$
>  <molecule>
Cc1ccc(NC(=O)NCC2(N3CCOCC3)CCOC2)c(C)c1 (configuration not stated)

>  <answer-label>
y

$$$$
>  <molecule>
COc1cc(C)c(Cl)cc1S(=O)(=O)Nc1ccc(-c2cn3ccc(C)nc3n2)cc1

>  <answer-label>
y

$$$$
>  <molecule>
CCCN1C(=O)c2cc(S(=O)(=O)N3CCCCC3)ccc2Oc2cccnc21

>  <answer-label>
n

$$$$
>  <molecule>
Cc1cccc(CNS(=O)(=O)c2ccc3c(c2)CCCC(=O)N3)c1

>  <answer-label>
y

$$$$
>  <molecule>
CC1(C)NC(=O)N(CCC(=O)N2CCC(c3nc(C4CCOCC4)no3)C2)C1=O (configuration not stated)

>  <answer-label>
y

$$$$

###

Assay: gradient 5% acetonitrile 3 min, to 50% in 2 min, to 85% in 15 min, held 3 min, 100 µL/min
Details: column: Zorbax Extend-C18 2.1 x 50 mm; eluents: water / acetonitrile, 0.1% formic acid
endpoint-label: RP-LC retention time (s)

>  <molecule>
CC(C)C(=O)Nc1nc2cc(NC(=O)C3CCN(S(=O)(=O)N4CCCC4)CC3)ccc2s1

>  <test-value>
805

$$$$
>  <molecule>
O=C(c1c2c(nc3ccccc13)C(=O)N(C1CCCCC1)C2)N1CCN(c2ccccn2)CC1

>  <test-value>
643

$$$$
>  <molecule>
Cc1cc(-c2nc3ccccc3s2)ccc1N

>  <test-value>
880

$$$$
>  <molecule>
CCNc1cc(N2CCCC(CCC(=O)NCc3cccc(F)c3)C2)ncn1 (stereo not given)

>  <test-value>
585

$$$$
>  <molecule>
Cn1c(=O)c2c(ncn2CC(=O)N2CCC(CCOc3ccc(F)cc3)C2)n(C)c1=O (stereo not given)

>  <test-value>
748

$$$$
